Give measured log10 of IC50 for each item. Keep answers brief.
target: JAK1 (Homo sapiens (Human), UniProt P23458); assay: JAK1 enzymatic inhibition assay (ADP-Glo luminescence); format: biochemical
Sequence (P23458 whole entry): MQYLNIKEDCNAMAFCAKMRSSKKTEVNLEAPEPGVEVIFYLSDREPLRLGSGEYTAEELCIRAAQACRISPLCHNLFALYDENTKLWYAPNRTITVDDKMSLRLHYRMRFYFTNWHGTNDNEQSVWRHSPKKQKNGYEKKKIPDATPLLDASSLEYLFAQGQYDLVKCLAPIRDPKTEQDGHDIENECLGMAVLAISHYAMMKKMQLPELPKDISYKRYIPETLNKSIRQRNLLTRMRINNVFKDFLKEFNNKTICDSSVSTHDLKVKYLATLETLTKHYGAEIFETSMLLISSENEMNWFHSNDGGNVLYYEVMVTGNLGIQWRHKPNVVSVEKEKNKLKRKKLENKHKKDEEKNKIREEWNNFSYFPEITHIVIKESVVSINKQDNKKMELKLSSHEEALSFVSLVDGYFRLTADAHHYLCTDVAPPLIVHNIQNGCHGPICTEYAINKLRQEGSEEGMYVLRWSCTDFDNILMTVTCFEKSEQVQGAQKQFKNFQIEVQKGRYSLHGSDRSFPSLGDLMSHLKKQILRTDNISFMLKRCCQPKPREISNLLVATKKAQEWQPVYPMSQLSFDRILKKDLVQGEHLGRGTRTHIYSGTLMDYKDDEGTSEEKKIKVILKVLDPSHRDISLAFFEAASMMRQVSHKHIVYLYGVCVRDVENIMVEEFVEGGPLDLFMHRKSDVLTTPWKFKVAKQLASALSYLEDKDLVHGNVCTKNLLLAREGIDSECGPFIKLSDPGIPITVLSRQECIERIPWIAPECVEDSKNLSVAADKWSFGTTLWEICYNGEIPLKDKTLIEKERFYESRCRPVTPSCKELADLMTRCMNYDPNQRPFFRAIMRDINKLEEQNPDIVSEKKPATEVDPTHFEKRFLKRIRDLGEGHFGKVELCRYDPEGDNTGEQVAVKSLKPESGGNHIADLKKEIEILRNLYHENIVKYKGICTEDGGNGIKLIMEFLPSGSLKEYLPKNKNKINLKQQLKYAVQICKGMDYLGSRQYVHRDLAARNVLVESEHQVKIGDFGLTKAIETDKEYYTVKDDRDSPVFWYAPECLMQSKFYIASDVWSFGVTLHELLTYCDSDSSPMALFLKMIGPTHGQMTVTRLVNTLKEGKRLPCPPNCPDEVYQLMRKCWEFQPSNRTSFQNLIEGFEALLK
In plain terms, each number is the log10 of measured IC50 in nM.

Recall and state the measured log10 of IC50 for CCS(=O)(=O)N1CC([C@H](C)C#N)(n2cc(-c3c(C#N)cnc4[nH]ccc34)cn2)C1 [Compound 45-2] .
0.27

State, in one line, measured log10 of IC50 of CCS(=O)(=O)N1CC(CC#N)(n2cc(-c3ccnc4[nH]ccc34)c(Cl)n2)C1 [Compound 48]
0.75

Read off the recorded log10 of IC50 for CC(C)CS(=O)(=O)N1CC(CC#N)(n2cc(-c3ccnc4[nH]ccc34)cn2)C1 [Compound 25]
0.36

Give the measured log10 of IC50 for CCCS(=O)(=O)N1CC(CC#N)(n2cc(-c3ccnc4[nH]ccc34)cn2)C1 [Compound 23]
0.38

Using known records, supply log10 of IC50 for CN(C)S(=O)(=O)N1CC(CC#N)(n2cc(-c3ccnc4[nH]ccc34)cn2)C1 [Compound 14]
0.11

Specify measured log10 of IC50 for N#CCC1(n2cc(-c3c(C#N)cnc4[nH]ccc34)cn2)CN(S(=O)(=O)CCC(F)(F)F)C1 [Compound 44] .
0.29

Specify log10 of IC50 for CC1(S(=O)(=O)N2CC(CC#N)(n3cc(-c4ccnc5[nH]ccc45)cn3)C2)CC1 [Compound 31] and stop.
-0.14

Please supply the value of reported log10 of IC50 for the item CCS(=O)(=O)N1CC(CC#N)(n2ccc(-c3c(C#N)cnc4[nH]ccc34)c2)C1 [Compound 17]
0.05

Specify measured log10 of IC50 for CC(C)S(=O)(=O)N1CC(CC#N)(n2cc(-c3c(C#N)cnc4[nH]ccc34)cn2)C1 [Compound 43] .
-0.26

Item CN(C)S(=O)(=O)N1CC(CC#N)(n2cc(-c3c(C#N)cnc4[nH]ccc34)cn2)C1 [Compound 34] : provide log10 of IC50
-0.10

Read the entry CC1(S(=O)(=O)N2CC(CC#N)(n3cc(-c4c(C#N)cnc5[nH]ccc45)cn3)C2)CC1 [Compound 1] and write its reported log10 of IC50.
-0.11

Consider the compound CCS(=O)(=O)N1CC([C@@H](C)C#N)(n2cc(-c3c(C#N)cnc4[nH]ccc34)cn2)C1 [Compound 45-1] . State its measured log10 of IC50.
0.22

Query log10 of IC50 for CCS(=O)(=O)N1CC(CC#N)(n2cc(C)c(-c3ncnc4[nH]ccc34)c2)C1 [Compound 56]
0.55

Please list log10 of IC50 recorded for the compound CCCS(=O)(=O)N1CC(CC#N)(n2cc(-c3c(C#N)cnc4[nH]ccc34)cn2)C1 [Compound 40]
-0.01

Item N#CCC1(n2cc(-c3ccnc4[nH]ccc34)cn2)CN(S(=O)(=O)N2CCCC2)C1 [Compound 35] : provide log10 of IC50
0.16

Could you please provide reported log10 of IC50 for CS(=O)(=O)N1CC(CC#N)(n2cc(-c3c(C#N)cnc4[nH]ccc34)cn2)C1 [Compound 2] ? Thanks!
-0.77

----------
target: JAK2 (Homo sapiens (Human), UniProt O60674); experiment: JAK2 enzymatic inhibition assay (ADP-Glo luminescence); assay type: biochemical
Sequence (O60674 whole entry): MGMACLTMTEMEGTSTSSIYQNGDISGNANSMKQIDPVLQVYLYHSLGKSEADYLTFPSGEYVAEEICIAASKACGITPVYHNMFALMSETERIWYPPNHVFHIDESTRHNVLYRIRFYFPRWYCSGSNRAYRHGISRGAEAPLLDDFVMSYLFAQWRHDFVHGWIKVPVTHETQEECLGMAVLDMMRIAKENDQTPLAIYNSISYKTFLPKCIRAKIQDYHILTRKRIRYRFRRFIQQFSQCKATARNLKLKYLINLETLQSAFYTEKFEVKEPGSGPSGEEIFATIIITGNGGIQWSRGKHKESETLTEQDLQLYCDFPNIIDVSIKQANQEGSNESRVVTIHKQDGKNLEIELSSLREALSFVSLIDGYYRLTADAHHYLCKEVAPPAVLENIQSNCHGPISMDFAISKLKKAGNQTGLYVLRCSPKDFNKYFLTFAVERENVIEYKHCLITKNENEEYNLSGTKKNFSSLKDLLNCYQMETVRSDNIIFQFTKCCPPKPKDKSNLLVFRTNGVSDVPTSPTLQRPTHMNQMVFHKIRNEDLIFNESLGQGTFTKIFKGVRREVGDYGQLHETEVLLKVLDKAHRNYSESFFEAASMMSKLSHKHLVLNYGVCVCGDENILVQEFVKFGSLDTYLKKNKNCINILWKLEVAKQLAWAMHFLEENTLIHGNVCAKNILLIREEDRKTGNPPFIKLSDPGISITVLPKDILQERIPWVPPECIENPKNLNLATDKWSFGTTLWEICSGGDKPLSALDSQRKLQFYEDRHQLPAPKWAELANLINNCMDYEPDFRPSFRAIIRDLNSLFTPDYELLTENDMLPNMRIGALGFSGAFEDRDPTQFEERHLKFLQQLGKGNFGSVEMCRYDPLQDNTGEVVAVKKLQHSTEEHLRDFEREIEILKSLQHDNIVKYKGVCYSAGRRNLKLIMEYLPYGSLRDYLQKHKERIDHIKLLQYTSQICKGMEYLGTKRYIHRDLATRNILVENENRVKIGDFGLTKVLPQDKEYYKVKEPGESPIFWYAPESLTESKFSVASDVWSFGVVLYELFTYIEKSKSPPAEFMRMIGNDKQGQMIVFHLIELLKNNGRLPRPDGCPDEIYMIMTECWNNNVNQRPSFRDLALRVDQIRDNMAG
What IC50 was measured for each of the following?
Please answer in the form of a number followed by its unit of measurement.

State, in one line, measured IC50 of CCS(=O)(=O)N1CC(CC#N)(n2cc(-c3ncnc4[nH]ccc34)cc2C#N)C1 [Compound 39]
0.69 nM

Give IC50 for N#CCC1(n2cc(-c3ccnc4[nH]ccc34)cn2)CN(S(=O)(=O)N2CCCC2)C1 [Compound 35]
1.4 nM

Tell me its IC50 given CCS(=O)(=O)N1CC(CC#N)(n2cc(-c3ccnc4[nH]ccc34)c(C)n2)C1 [Compound 13] as the entry.
1.44 nM

Input CCS(=O)(=O)N1CC(CC#N)(n2cc(-c3ncnc4[nH]ccc34)c(C)n2)C1 [Compound 49] , output reported IC50.
1.21 nM

Input CS(=O)(=O)N1CC(CC#N)(n2cc(-c3c(C#N)cnc4[nH]ccc34)cn2)C1 [Compound 2] , output reported IC50.
0.42 nM

Give the reported IC50 for this compound. N#CCC1(n2cc(-c3ccnc4[nH]ccc34)cn2)CN(S(=O)(=O)CCC(F)(F)F)C1 [Compound 30]
2.16 nM

In one line, give reported IC50 of the entry CCS(=O)(=O)N1CC(CC#N)(n2ccc(-c3c(C#N)cnc4[nH]ccc34)c2)C1 [Compound 17] .
0.93 nM

Please give the documented IC50 of N#CCC1(n2cc(-c3ccnc4[nH]ccc34)cn2)CN(S(=O)(=O)C2CC2)C1 [Compound 26]
0.37 nM

For the compound CC1(S(=O)(=O)N2CC(CC#N)(n3cc(-c4c(C#N)cnc5[nH]ccc45)cn3)C2)CC1 [Compound 1] , give its measured IC50 value.
1.98 nM

Could you please provide reported IC50 for N#CCC1(n2cc(-c3c(C#N)cnc4[nH]ccc34)cn2)CN(S(=O)(=O)CCC(F)(F)F)C1 [Compound 44] ? Thanks!
3.93 nM

State its IC50 for this compound: CCS(=O)(=O)N1CC(CC#N)(n2cc(-c3c(Cl)cnc4[nH]ccc34)cn2)C1 [Compound 50]
0.67 nM

// Input: CCCS(=O)(=O)N1CC(CC#N)(n2cc(-c3c(C#N)cnc4[nH]ccc34)cn2)C1 [Compound 40] . Output its IC50 only.
2.24 nM

Identify measured IC50 corresponding to CCS(=O)(=O)N1CC([C@H](C)C#N)(n2cc(-c3ncnc4[nH]ccc34)cn2)C1 [Compound 12-2]
1.81 nM

Please report IC50 for the following compound: CCS(=O)(=O)N1CC([C@H](C)C#N)(n2cc(-c3c(C#N)cnc4[nH]ccc34)cn2)C1 [Compound 45-2]
1.11 nM

Given CCS(=O)(=O)N1CC(CC#N)(n2cc(-c3c(F)cnc4[nH]ccc34)cn2)C1 [Compound 52] , respond with its IC50.
0.4 nM

Fill in IC50 for record CCS(=O)(=O)N1CC(C(C)C#N)(n2cc(-c3c(C#N)cnc4[nH]ccc34)cn2)C1 (stereo not drawn) [Compound 45]
3.22 nM

Fill in IC50 for record CN(C)S(=O)(=O)N1CC(CC#N)(n2cc(-c3ccnc4[nH]ccc34)cn2)C1 [Compound 14]
0.5 nM

Supply IC50 value. Item: CC1(S(=O)(=O)N2CC(CC#N)(n3cc(-c4ccnc5[nH]ccc45)cn3)C2)CC1 [Compound 31]
1.23 nM

----------
assay: Pharmacokinetic study in rats, gavage (PO) administration; type: in vivo; settings: male, SD, rat, plasma, PO administration at 0.5-5 mg/kg, read-out: half-life (T1/2) (converted)
reported-metric: half-life (h)
Output spec: scalar in h, unitless text.

For the molecule CCS(=O)(=O)N1CC(CC#N)(n2cc(-c3ncnc4[nH]ccc34)cn2)C1 [Baricitinib, reference compound] , report half-life.
1.58

----------
Assay: Pharmacokinetic study in rats, intravenous (IV) administration
Assay type: in vivo
Conditions: male, SD, rat, plasma, IV administration at 1 mg/kg, 0-24 h
Description: Experimental Example 3: Pharmacokinetic Studies To study the pharmacokinetic characteristics of test compounds, the test compounds were administrated by intravenous (IV) and gavage (PO) routes to male SD rats. The dosage for IV administration was 1 mg/kg, and that for PO administration was 0.5-5 mg/kg. […] Plasma samples were analyzed by LC-MS/MS after protein precipitation process with acetonitrile.
reported-metric: AUC(0-t) (ng·h/mL)
Please give a number only; it is taken to be in ng·h/mL.

Assign AUC(0-t) to the following record: CCS(=O)(=O)N1CC(CC#N)(n2cc(-c3c(C#N)cnc4[nH]ccc34)cn2)C1
834

Let me know recorded AUC(0-t) for N#CCC1(n2cc(-c3ccnc4[nH]ccc34)cn2)CN(S(=O)(=O)CCC(F)(F)F)C1 , thanks.
3170

Give the measured AUC(0-t) for CCS(=O)(=O)N1CC(CC#N)(n2cc(-c3ccnc4[nH]ccc34)cn2)C1
2650

Give recorded AUC(0-t). CCS(=O)(=O)N1CC(CC#N)(n2cc(-c3ncnc4[nH]ccc34)cn2)C1 [Baricitinib, reference compound]
505

Sourced from patent US11045455B2
